Tested on: RARb homodimer (NR concentration 270 nM)
Assay: PBM binding z-score (relative to random genomic background probes); higher = stronger binding; sequences stand for … in GC…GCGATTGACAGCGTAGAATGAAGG
MEASURE_NAME: PBM binding z-score

construct_sequence=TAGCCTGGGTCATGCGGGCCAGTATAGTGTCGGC study_system="RARb homodimer (NR concentration 270 nM)" endpoint_value=2.5
construct_sequence=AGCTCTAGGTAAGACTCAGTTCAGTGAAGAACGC study_system="RARb homodimer (NR concentration 270 nM)" endpoint_value=0.218
construct_sequence=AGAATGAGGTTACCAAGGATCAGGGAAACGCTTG study_system="RARb homodimer (NR concentration 270 nM)" endpoint_value=1.02
construct_sequence=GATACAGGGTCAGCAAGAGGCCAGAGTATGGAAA study_system="RARb homodimer (NR concentration 270 nM)" endpoint_value=3.45
construct_sequence=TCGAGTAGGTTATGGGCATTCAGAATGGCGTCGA study_system="RARb homodimer (NR concentration 270 nM)" endpoint_value=-0.0176
construct_sequence=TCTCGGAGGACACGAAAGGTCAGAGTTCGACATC study_system="RARb homodimer (NR concentration 270 nM)" endpoint_value=5.05
construct_sequence=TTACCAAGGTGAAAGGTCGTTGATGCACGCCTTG study_system="RARb homodimer (NR concentration 270 nM)" endpoint_value=2.52
construct_sequence=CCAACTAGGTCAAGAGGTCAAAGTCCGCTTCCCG study_system="RARb homodimer (NR concentration 270 nM)" endpoint_value=5.51
construct_sequence=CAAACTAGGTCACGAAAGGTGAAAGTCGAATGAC study_system="RARb homodimer (NR concentration 270 nM)" endpoint_value=4.73
construct_sequence=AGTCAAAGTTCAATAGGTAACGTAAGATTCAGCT study_system="RARb homodimer (NR concentration 270 nM)" endpoint_value=3.98
construct_sequence=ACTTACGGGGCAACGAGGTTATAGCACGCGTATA study_system="RARb homodimer (NR concentration 270 nM)" endpoint_value=1.13
construct_sequence=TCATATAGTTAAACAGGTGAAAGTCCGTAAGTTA study_system="RARb homodimer (NR concentration 270 nM)" endpoint_value=0.84
construct_sequence=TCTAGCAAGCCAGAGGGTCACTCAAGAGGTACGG study_system="RARb homodimer (NR concentration 270 nM)" endpoint_value=2.11
construct_sequence=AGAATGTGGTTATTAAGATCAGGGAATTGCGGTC study_system="RARb homodimer (NR concentration 270 nM)" endpoint_value=0.199
construct_sequence=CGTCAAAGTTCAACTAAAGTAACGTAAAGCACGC study_system="RARb homodimer (NR concentration 270 nM)" endpoint_value=4.13
construct_sequence=TCATAAAGGTAAATGCTAGGTGAAAGTCCGATCT study_system="RARb homodimer (NR concentration 270 nM)" endpoint_value=0.719
construct_sequence=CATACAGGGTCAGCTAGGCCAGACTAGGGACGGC study_system="RARb homodimer (NR concentration 270 nM)" endpoint_value=3.19
construct_sequence=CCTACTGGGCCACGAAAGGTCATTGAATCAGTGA study_system="RARb homodimer (NR concentration 270 nM)" endpoint_value=4.71
construct_sequence=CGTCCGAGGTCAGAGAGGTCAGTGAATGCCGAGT study_system="RARb homodimer (NR concentration 270 nM)" endpoint_value=5.44
construct_sequence=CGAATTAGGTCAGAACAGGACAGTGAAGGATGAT study_system="RARb homodimer (NR concentration 270 nM)" endpoint_value=2.36
construct_sequence=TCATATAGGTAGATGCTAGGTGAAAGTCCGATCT study_system="RARb homodimer (NR concentration 270 nM)" endpoint_value=0.362
construct_sequence=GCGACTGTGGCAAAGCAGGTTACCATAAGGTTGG study_system="RARb homodimer (NR concentration 270 nM)" endpoint_value=0.168
construct_sequence=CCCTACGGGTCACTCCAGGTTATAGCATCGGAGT study_system="RARb homodimer (NR concentration 270 nM)" endpoint_value=3.22
construct_sequence=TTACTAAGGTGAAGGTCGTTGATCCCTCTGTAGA study_system="RARb homodimer (NR concentration 270 nM)" endpoint_value=1.96
construct_sequence=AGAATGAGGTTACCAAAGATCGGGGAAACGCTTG study_system="RARb homodimer (NR concentration 270 nM)" endpoint_value=0.666
construct_sequence=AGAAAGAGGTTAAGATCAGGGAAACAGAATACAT study_system="RARb homodimer (NR concentration 270 nM)" endpoint_value=1.42
